Values were extracted from ChEMBL document CHEMBL1142374.

Exercise: for every item that follows, state its recorded IC50.
Entry rule: numbers only, all in nM.

Please indicate recorded IC50 of Nc1ncnc2oc(-c3cccnc3)c(-c3ccc(NS(=O)(=O)c4cccs4)cc3)c12 measured with Glycogen synthase kinase-3 beta (Homo sapiens).
Sequence (P49841 whole entry): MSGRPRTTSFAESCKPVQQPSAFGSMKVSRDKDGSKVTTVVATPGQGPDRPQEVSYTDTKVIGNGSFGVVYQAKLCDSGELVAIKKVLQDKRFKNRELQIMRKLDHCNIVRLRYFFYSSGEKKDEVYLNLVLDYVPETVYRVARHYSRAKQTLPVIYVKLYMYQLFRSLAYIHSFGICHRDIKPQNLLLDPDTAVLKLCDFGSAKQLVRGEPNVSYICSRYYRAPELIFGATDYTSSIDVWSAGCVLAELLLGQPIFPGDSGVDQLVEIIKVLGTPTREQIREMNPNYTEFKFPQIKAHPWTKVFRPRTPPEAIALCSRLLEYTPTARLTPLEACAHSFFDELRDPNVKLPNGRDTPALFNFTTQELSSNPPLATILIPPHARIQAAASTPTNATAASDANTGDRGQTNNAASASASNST
23

GET IC50 | system: Glycogen synthase kinase-3 beta (Homo sapiens) | item: CC(=O)Nc1ccc(-c2c(-c3cccnc3)oc3ncnc(N)c23)cc1
1630

For Glycogen synthase kinase-3 beta (Homo sapiens), give IC50 of the listed compound: Nc1ncnc2oc(-c3cccnc3)c(-c3ccc(NS(=O)(=O)c4ccccc4)cc3)c12
30
